Reference source for all entries: ChEMBL document CHEMBL1127946

property: pIC50
Bear in mind: pIC50 is minus log10 of a mol/L concentration; give just that figure.

Observed pIC50 on Squalene synthase (Rattus norvegicus, UniProt Q02769) for C=C(CC[C@]12O[C@H](CO)[C@@](O)(C(=O)O)[C@](C(=O)O)(O1)[C@H](OC(=O)CCC(C)C)[C@H]2O)[C@@H](OC(C)=O)[C@H](C)Cc1ccccc1 , please.
6.92

Observed pIC50 on Squalene synthase (Rattus norvegicus, UniProt Q02769) for C=C(CC[C@]12O[C@H](CO)[C@@](O)(C(=O)OC)[C@](C(=O)O)(O1)[C@H](OC(=O)/C=C/[C@@H](C)C[C@@H](C)CC)[C@H]2O)[C@@H](OC(C)=O)[C@H](C)Cc1ccccc1 , please.
7.10

Observed pIC50 on Squalene synthase (Rattus norvegicus, UniProt Q02769) for C=C(CC[C@]12O[C@H](CO)[C@@](O)(C(=O)O)[C@](C(=O)O)(O1)[C@H](OC(=O)CCC)[C@H]2O)[C@@H](OC(C)=O)[C@H](C)Cc1ccccc1 , please.
6.10

====

Target: Squalene synthase (Rattus norvegicus, UniProt Q02769)
Sequence (Q02769 whole entry): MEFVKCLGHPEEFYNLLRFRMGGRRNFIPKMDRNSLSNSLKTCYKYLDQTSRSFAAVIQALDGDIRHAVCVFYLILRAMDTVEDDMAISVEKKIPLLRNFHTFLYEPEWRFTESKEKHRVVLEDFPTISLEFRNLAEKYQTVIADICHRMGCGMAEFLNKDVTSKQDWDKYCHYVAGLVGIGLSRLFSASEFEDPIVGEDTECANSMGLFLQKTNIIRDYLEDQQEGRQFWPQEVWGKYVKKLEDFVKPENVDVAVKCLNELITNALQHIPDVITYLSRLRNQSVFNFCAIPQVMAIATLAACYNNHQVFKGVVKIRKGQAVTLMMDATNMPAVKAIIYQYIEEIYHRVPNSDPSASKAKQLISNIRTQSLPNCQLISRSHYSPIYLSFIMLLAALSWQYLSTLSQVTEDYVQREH
Record form. Attribute: IC50. Fill in for each entry.
Give a bare numeral; the unit µM is implied.

Tell me the measured IC50 of C=C(CC[C@]12O[C@H](CO)[C@@](O)(C(=O)O)[C@](C(=O)O)(O1)[C@H](OC(=O)/C=C/[C@@H](C)C[C@@H](C)CC)[C@H]2O)[C@@H](OC(C)=O)[C@H](C)Cc1ccccc1 , please.
0.015

Tell me the measured IC50 of C=C(CC[C@]12O[C@H](CO)[C@@](O)(C(=O)O)[C@](C(=O)O)(O1)[C@H](OC(=O)/C=C/[C@@H](C)C[C@@H](C)CC)[C@H]2O)[C@@H](O)[C@H](C)Cc1ccccc1 , please.
0.021

Tell me the measured IC50 of C=C(CC[C@]12O[C@H](CO)[C@@](O)(C(=O)O)[C@](C(=O)O)(O1)[C@H](OC(=O)CC[C@@H](C)C[C@@H](C)CC)[C@H]2O)[C@@H](OC(C)=O)[C@H](C)Cc1ccccc1 , please.
0.044

Tell me the measured IC50 of C=C(CC[C@]12O[C@H](CO)[C@@](O)(C(=O)O)[C@](C(=O)O)(O1)[C@H](OC(=O)CCCCCC)[C@H]2O)[C@@H](OC(C)=O)[C@H](C)Cc1ccccc1 , please.
0.245

Tell me the measured IC50 of CC[C@H](C)C[C@H](C)CCC(=O)O[C@@H]1[C@@H](O)[C@@]2(CCC(=O)[C@@H](O)[C@H](C)Cc3ccccc3)O[C@H](CO)[C@@](O)(C(=O)O)[C@]1(C(=O)O)O2 , please.
0.74
